- System: 276233-004-R-J1-PDC KRAS spheroids with HUVEC/MSC, viability
- Test Summary: Anticancer human tumor 276233-004-R-J1-PDC patient-derived colon adenocarcinoma cell line growth inhibition [KRAS2]
- Applied Conditions: second compound 10 µM; first compound 10 µM; stronger effect = lower value
Catalogue of viability, T/C values
Respond with the bare value in %.

Illustrative cases are given below, each with its answer.
Compound: Cn1nccc1Nc1nccc(-c2cc3c(s2)C(C)(C)N(CCN2CCOCC2)C3=O)n1 + COc1cc2nc(C)nc(NC(C)c3cc(N)cc(C(F)(F)F)c3)c2cc1OC1CCOC1
Target Under Test: 276233-004-R-J1-PDC KRAS spheroids with HUVEC/MSC, viability
Value Units: %
Value Observed: 4.25

Compound: CCNC(=O)CC1N=C(c2ccc(Cl)cc2)c2cc(OC)ccc2-n2c(C)nnc21 (stereo not given) + CC1OCC2(CCN(c3cnc(Sc4ccnc(N)c4Cl)c(N)n3)CC2)C1N
Target Under Test: 276233-004-R-J1-PDC KRAS spheroids with HUVEC/MSC, viability
Value Units: %
Value Observed: 42.4

Compound: CC(C)NCC(C(=O)N1CCN(c2ncnc3c2C(C)CC3O)CC1)c1ccc(Cl)cc1 (stereo not given) + C=CC(=O)N1CCN(c2nc(=O)n(-c3c(C)ccnc3C(C)C)c3nc(-c4c(O)cccc4F)c(F)cc23)C(C)C1
Target Under Test: 276233-004-R-J1-PDC KRAS spheroids with HUVEC/MSC, viability
Value Units: %
Value Observed: 64.4

Compound: COC(=O)c1ccc2c(C(=Nc3ccc(N(C)C(=O)CN4CCN(C)CC4)cc3)c3ccccc3)c(O)[nH]c2c1 + COc1cc2nc(C)nc(NC(C)c3cc(N)cc(C(F)(F)F)c3)c2cc1OC1CCOC1
Target Under Test: 276233-004-R-J1-PDC KRAS spheroids with HUVEC/MSC, viability
Value Units: %
Value Observed: 1.87

Let us examine a further case.
In: Complete the entry with viability, T/C for CC1(C)CCC(CN2CCN(c3ccc(C(=O)NS(=O)(=O)c4ccc(NCC5CCOCC5)c([N+](=O)[O-])c4)c(Oc4cnc5[nH]ccc5c4)c3)CC2)=C(c2ccc(Cl)cc2)C1 + C=CC(=O)N1CCN(c2nc(=O)n(-c3c(C)ccnc3C(C)C)c3nc(-c4c(O)cccc4F)c(F)cc23)C(C)C1
Out: 57

====

- Test system: 276233-004-R-J1-PDC KRAS spheroids with HUVEC/MSC, viability
- Test Summary: Anticancer human tumor 276233-004-R-J1-PDC cell line growth inhibition [KRAS2];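 also: cells exposed to agents for seven days before viability read; 100% = DMSO vehicle control wells and lower values mean fewer viable cells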
- Applied Conditions: second compound 0.1 µM; first compound 0.0316 µM; stronger effect = lower value
# if measured viability, T/C < 90%: fulfilled  # else: not fulfilled

Molecule: COC(=O)c1ccc2c(C(=Nc3ccc(N(C)C(=O)CN4CCN(C)CC4)cc3)c3ccccc3)c(O)[nH]c2c1 + CC1OCC2(CCN(c3cnc(Sc4ccnc(N)c4Cl)c(N)n3)CC2)C1N
Group: fulfilled
//
Molecule: CC(=O)OC12COC1CC(O)C1(C)C(=O)C(O)C3=C(C)C(OC(=O)C(O)C(NC(=O)OC(C)(C)C)c4ccccc4)CC(O)(C(OC(=O)c4ccccc4)C21)C3(C)C (stereo unspecified) + COc1cc2nc(C)nc(NC(C)c3cc(N)cc(C(F)(F)F)c3)c2cc1OC1CCOC1
Group: fulfilled
//
Molecule: CC1OCC2(CCN(c3cnc(Sc4ccnc(N)c4Cl)c(N)n3)CC2)C1N (stereo unspecified) + C=CC(=O)N1CCN(c2nc(=O)n(-c3c(C)ccnc3C(C)C)c3nc(-c4c(O)cccc4F)c(F)cc23)C(C)C1
Group: not fulfilled
//
Molecule: CC(C)n1nc(-c2ccc3oc(N)nc3c2)c2c(N)ncnc21 + CNCc1ccccc1-c1csc(C(C)Nc2nc(C)nc3cc(OC)c(OC)cc23)c1
Group: fulfilled
//
Molecule: CC(C)n1nc(-c2ccc3oc(N)nc3c2)c2c(N)ncnc21 + CC1OCC2(CCN(c3cnc(Sc4ccnc(N)c4Cl)c(N)n3)CC2)C1N
Group: fulfilled

Proceed to the following item.
In: Input O=C(c1cc(Cc2n[nH]c(=O)c3ccccc23)ccc1F)N1CCN(C(=O)C2CC2)CC1 + C=CC(=O)N1CCN(c2nc(=O)n(-c3c(C)ccnc3C(C)C)c3nc(-c4c(O)cccc4F)c(F)cc23)C(C)C1 ; condition: viability, T/C strictly below 90%. Does it hold?
Out: fulfilled
